Assay: viability loss with induced miR-34 in A549 – imaging, A549 dox-inducible miR-34, nuclei and caspase counts, primary screen (AID 1347080); note: test concentration not given here
Settings: A549 miR-34 inducible, Hoechst nuclei count, 48 h; measured here: total cells with miR-34 induction; stronger effect = lower value
Labelling field: enter YES if recorded cell count is less than 9000. Enter NO if it equals or exceeds that cut-off.

MOLECULE	CATEGORY
Cc1nn(C)cc1-c1ccnc(NCC(C)Oc2cccnc2)n1 (stereo not given)	YES
CC/C=C\C/C=C\C/C=C\CCCCCCCCCCCC(=O)O	YES
C=CC(C)(O)CCC1[C@@]2(C)CCCC(C)(C)C2CC[C@@]1(C)O (stereo not given in full)	YES
CCCCCC(=O)/C=C/[C@@H]1[C@@H](C/C=C\CCCC(=O)O)[C@@H](O)C[C@H]1O	YES
CN1CCN(S(=O)(=O)c2ccc(-c3cnc(N)c(C(=O)Nc4cccnc4)n3)cc2)CC1	YES
Cc1[nH]nc2ccc(-c3cncc(OCC(N)Cc4ccccc4)c3)cc12 (stereo not given)	YES
CC(C)(Oc1ccc(Cl)cc1)C(=O)OCCOC(=O)c1cccnc1	YES
CC(N)=O	NO
CCCCC/C=C\C\C=C/C=C/C=C/[C@@H](SC[C@H](NC(=O)CC[C@H](N)C(=O)O)C(=O)NCC(=O)O)[C@@H](O)CCCC(=O)O	YES
O=c1cc(-c2ccccc2F)[nH]c2cc3c(cc12)OCO3	YES
O=C(O)C1CCNCC1	NO
C[N+](C)(C)CCOP(=O)(O)OP(=O)([O-])OC[C@H]1O[C@@H](n2ccc(N)nc2=O)C(O)[C@H]1O (stereo not given in full)	NO
C=CCN1CCc2c(cc(O)c(O)c2Br)[C@@H](c2ccccc2)C1	YES
CC1=C(C(=O)O)N2C(=O)C(NC(=O)C(N)c3ccccc3)[C@@H]2SC1 (stereo not given in full)	YES
C[C@H](C(=O)O)c1cccc(C(=O)c2ccccc2)c1	YES
Cc1cc(Nc2nc(NC(C)c3ccc(F)cc3)c(C#N)cc2F)n[nH]1 (stereo not given)	YES
CCOC(=O)C12CC1/C(=N/O)c1ccccc1O2 (stereo not given)	NO
O=C(Nc1ccccc1)c1ccn[nH]1	YES
CCC1C(=O)N(C)CCN1C(=O)Nc1nc(C)ns1 (stereo not given)	YES
O=C1c2ccc(Nc3ccc(F)cc3F)cc2CCc2ccc(OCC(O)CO)cc21 (stereo not given)	YES
OC(CNCC(O)[C@H]1CCc2cc(F)ccc2O1)[C@@H]1CCc2cc(F)ccc2O1 (stereo not given in full)	YES
CCOC(=O)C1=C(N)Oc2ccc(Br)cc2[C@H]1C(C#N)C(=O)OCC (stereo not given in full)	YES
CC1CC2C3CC(F)C4=CC(=O)C(Cl)=C[C@]4(C)[C@@]3(F)C(O)C[C@]2(C)[C@@]1(O)C(=O)CO (stereo not given in full)	YES
Cc1ccc(NC(=O)C2CC23CCCCC3)cn1 (stereo not given)	YES
CCC1OC(=O)C(C)C(OC2C[C@@](C)(OC)C(O)C(C)O2)C(C)C(OC2OC(C)CC(N(C)C)C2O)[C@](C)(O)CC(C)CN(C)C(C)C(O)[C@]1(C)O (stereo not given in full)	YES
Cc1cc(C#N)cc(C)c1Oc1nc(Nc2ccc(C#N)cc2)nc(N)c1Br	YES
CC[C@]1(O)C[C@@H]2CN(CCc3c([nH]c4ccccc34)[C@@](C(=O)OC)(c3cc4c(cc3OC)N(C=O)[C@@H]3[C@@]45CCN4CC=C[C@@](CC)(C(OC(C)=O)[C@]3(O)C(=O)OC)[C@H]45)C2)C1 (stereo not given in full)	YES
CCN(CCc1ccccn1)C(=O)c1cc(-c2cnc(N)nc2)nc2c(C)cccc12	YES
NC(=O)Nc1cc(-c2cccc(F)c2)sc1C(=O)NC1CCCNC1 (stereo not given)	YES
CC[C@H]1OC(=O)[C@H](C)C(O[C@H]2C[C@@](C)(OC)[C@@H](O)[C@H](C)O2)[C@H](C)[C@@H](OC2O[C@H](C)C[C@H](N(C)C)[C@H]2O)[C@](C)(O)C[C@@H](C)CN(C)[C@H](C)[C@@H](O)[C@]1(C)O (stereo not given in full)	NO
COc1ccc([C@H]2Sc3ccccc3N(CCN(C)C)C(=O)[C@H]2OC(C)=O)cc1	YES
CC1(C)S[C@@H]2C(NC(=O)C(C(=O)O)c3ccccc3)C(=O)N2C1C(=O)O (stereo not given in full)	YES
CC(=O)N(CC(C)C(=O)O)c1c(I)cc(I)c(N)c1I (stereo not given)	NO

* * *

Experiment: galactose survival enhancers in mitochondrial complex I cybrids – cell-based, galactose medium, ATP luminescence, primary screen (AID 1645843);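 note: positive z means more ATP and so rescue of galactose-driven cybrid death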
Settings: complex I mutant cybrid cells, 72 h, stronger effect = higher value
MEASURE NAME: z-score

COMPOUND	QUANTITATIVE RESULT
Cc1cccc2c(C(=O)N(C)C(C)C)cc(-c3cnc(C(C)(C)C)nc3)nc12	2.35
O=c1[nH]cnc2c1ncn2C1CCC(CO)O1 (centres undefined)	0.465
Fc1ccc(CC2CCNCC2)cc1	0.525
Cc1nc2sccn2c1CN1CCC2(CC1)C(=O)N(CC(C)C)C(=O)N2CCc1ccccc1	0.34
COc1ccc(/C=C/c2nc(NCCCN(C)C)c3ccccc3n2)cc1	-1.21
NCCC(O)C(=O)NC1CC(N)C(OC2OC(CN)C(O)C(O)C2O)C(O)C1OC1OC(CO)C(O)C(N)C1O (centres undefined)	0.985
Cc1ccnn1CCC(=O)N1CCc2c(cc(Cc3ccccc3F)c(=O)n2Cc2cccnc2)C1	0.325
CCOC(=O)c1cc(C)nc(N2CCCC(c3nc(C(C)C)no3)C2)n1 (centres undefined)	-0.54
NCCCC[C@@H]1NC(=O)[C@@H]2C[C@H](NC(=O)c3sccc3Cl)CN2C1=O	-0.915
CCN1CCCC1CNC(=O)c1nn(CCOC)c2c1CN(Cc1c(C)nc3sccn13)CC2 (centres undefined)	-0.87
CC1(C)CC(=O)c2c(N)ncnc2C1	0.725
CCN(C)Cc1ccc(-c2nc(C(F)(F)F)c(C)c(=O)[nH]2)cc1	0.97
Nc1nc(OCC2CCCCC2)c2[nH]cnc2n1	-0.68
CC1CCc2c(sc3ncn(Cc4noc(C(C)C)n4)c(=O)c23)C1 (centres undefined)	-0.525
Cc1nc2cc(C(=O)N3CCN(C)C(=O)C3)ccc2s1	-0.24
CC(C)CCNc1cc(C(=O)NCCCn2ccnc2)cc(S(=O)(=O)N2CCCC2)c1	-0.97
CCc1nc(CNc2cc(C(=O)NCc3ccccn3)cc(S(=O)(=O)N3CCCC3)c2)c(C)[nH]1	0.97
O=c1ccc2ccccc2[nH]1	0.98
O=C1CCC(c2ccc(-n3ccnc3)cc2)=NN1	-0.165
CC#CCC(C)[C@H](O)/C=C/[C@@H]1[C@H]2C/C(=C/CCCC(=O)O)C[C@H]2C[C@H]1O (some centres undefined)	0.275
CCc1noc(CN(C(=O)c2ccccc2-n2cccn2)C(C)C)n1	-0.655
O=c1c2ccc(C(F)(F)F)cc2ncn1CCC1CCCCN1C1CCCC1 (centres undefined)	-0.69
Cc1onc(-c2ccccc2)c1C(=O)N1CC(=O)N(Cc2ccccc2)CC(OCC2CC2)C1 (centres undefined)	-1.6
COC(=O)c1ccc(N2CCC(c3ccccc3Cl)C2)nc1 (centres undefined)	0.895
OCC1NCC(O)C(O)C1O (centres undefined)	-0.145
CN1C2CC(OC(=O)C(CO)c3ccccc3)CC1C1OC12 (centres undefined)	0.87
CCCC1CCCN1Cc1ccccc1OC1(C(=O)O)CCCC1 (centres undefined)	-0.265
O=C(Nc1n[nH]c(-c2ccco2)n1)N1CCc2ccccc2C1	0.1
CS(=O)(=O)c1ccc(-n2nc(C(F)(F)F)cc2-c2ccc(F)cc2)cc1	0.62
NC1(C(=O)O)CCCCC1	0.63
COCCn1c(C(=O)OC)c(NC(=O)Cc2ccccc2)c2cc(NC(C)CCO)cnc21 (centres undefined)	-0.97
CC(=O)Nc1nc2c(s1)C(=O)NCCC2	0.685
O=c1c2sccc2ncn1Cc1nc2ccccc2[nH]1	0.03
CC(C)c1nc(CN(C)C(=O)NC(C(=O)NC(Cc2ccccc2)CC(O)C(Cc2ccccc2)NC(=O)OCc2cncs2)C(C)C)cs1 (centres undefined)	-0.03
NCCCC[C@@H]1NC(=O)[C@@H]2C[C@H](NCc3nc(-c4ccccc4)cs3)CN2C1=O	-0.77
CC(C)C(NC(=O)Cc1c[nH]c2ccccc12)C(=O)O (centres undefined)	0.47
NCC(=O)Nc1ccc(OCc2ccccc2)cc1	-1.35
O=C1CN(c2ncnc3nc[nH]c23)CCN1CCc1ccccc1	-0.58
NCC(O)C1CCCCCCC1 (centres undefined)	0.085
Cn1ncc2[nH]c(-c3cc(F)ccc3-n3cccn3)nc21	-0.56
Cc1nsc(NC(=O)NCCC2CCCCCC2)n1	-1.07
CCC1(O)CC2CN(CCc3c([nH]c4ccccc34)[C@@](C(=O)OC)(c3cc4c(cc3OC)N(C=O)C3[C@]45CCN4CC=C[C@@](CC)([C@@H](OC(C)=O)[C@]3(O)C(=O)OC)[C@H]45)C2)C1 (some centres undefined)	-0.935
COc1cccc(C(=O)N2CCN3C(=O)[C@H](C(C)C)NC(=O)[C@H]3C2)c1	0.605
COc1cc(CN2CC(=O)N(CC3CCOCC3)CC(OCc3ccccn3)C2)cc2c1OCO2 (centres undefined)	-1.33
